# System: DU-145
# test: NCI tumour cell line growth inhibition, 48 h
The source made the active and inactive calls. No stated cut-off is given here; in the data, active = GI50 up to about 1.1 µM and inactive = higher.
Listed here are molecules together with their documented GI50.
readout-kind: GI50

molecule=C=C1CC[C@@H]2[C@](C)(COC(=O)CCC(=O)OC)CCC[C@@]2(C)[C@@H]1CCC1=CC(=O)OC1 result="71.4 µM (inactive)"
molecule="CCC(Nc1ncnc2nc[nH]c12)C(=O)O (stereo not given)" result="> 100 µM (inactive)"
molecule=Cc1cc(C)nc(NS(=O)(=O)c2ccc(Nc3c4ccccc4nc4c(C(=O)NCCO)cccc34)cc2)n1 result="40.8 µM (inactive)"
molecule=CCCc1c(O)c(=O)c2c(OC)cc(OC)c3c4c(OC)cc(OC)c5c(=O)c(O)c(CCC)c(c1c23)c54 result="0.37 µM (active)"
molecule=C#CCOC(=O)c1ccccc1OC(C)=O result="> 100 µM (inactive)"
molecule=CCOC(=O)/C=C(\C(=O)OCC)n1ccc(N)nc1=O result="> 100 µM (inactive)"
molecule="C=CCN(c1cc(OC)c2c(c1[N+](=O)[O-])C(C)(SC)C(=O)N2)S(C)(=O)=O (stereo not given)" result="> 100 µM (inactive)"
molecule="COc1ccc(N[C@H]([C@@H](c2ccccc2)[S+]([O-])c2ccc(C)cc2)C(F)(F)F)cc1 (stereo not given in full)" result="62.8 µM (inactive)"
molecule="c1ccc(C(NC2=NCCO2)C2CC2)cc1 (stereo not given)" result="> 100 µM (inactive)"
molecule="OC(c1cc(C(F)(F)F)nc2c(Cl)cc(Cl)cc12)C1CCCCN1 (stereo not given)" result="7.01 µM (inactive)"
